test system: SW1990 cells; assay: Cell viability (DAPI nuclei count, high content imaging); assay type: cell-based; conditions: Homo sapiens; parental SW1990; read-out: IC50 for GEM (viability)
Counter-ions that a name gives are not always drawn.
Measure: IC50 (nM)
Supply the numeric figure in nM, leaving out any unit text.

-- ask // fetch SW1990 cells IC50 for Nc1ccn([C@@H]2O[C@H](CO)[C@@H](O)C2(F)F)c(=O)n1 [GEM, Gemcitabine hydrochloride]
-- reply 9.6

* * *

system: SW1990 cells; test: Cell viability (DAPI nuclei count, high content imaging); type: cell-based; settings: Homo sapiens, SW1990, 72 h, read-out: IC50, viability
Measure: IC50 (nM)
Supply the numeric figure in nM, leaving out any unit text.

-- ask Data request, read-out IC50, for CO[C@H]1C[C@H](O[C@H]2CC[C@]3(C=O)[C@H]4CC[C@]5(C)[C@@H](C6=CC(=O)OC6)CC[C@]5(O)[C@@H]4CC[C@]3(O)C2)O[C@H](C)[C@H]1O
-- reply 33.8

* * *

tested on: SW1990GR cells; experiment: Cell viability (DAPI nuclei count, high content imaging); type: cell-based; details: 72 h, CYM 0-500 nM, 3 days, read-out: IC50, viability
Measure: IC50 (nM)
Supply the numeric figure in nM, leaving out any unit text.

-- ask // fetch SW1990GR cells IC50 for CO[C@H]1C[C@H](O[C@H]2CC[C@]3(C=O)[C@H]4CC[C@]5(C)[C@@H](C6=CC(=O)OC6)CC[C@]5(O)[C@@H]4CC[C@]3(O)C2)O[C@H](C)[C@H]1O
-- reply 40.8

* * *

system: SW1990GR cells; assay: Cell viability (DAPI nuclei count, high content imaging); format: cell-based; conditions: GEM-resistant line, read-out: IC50 for GEM (viability)
Counter-ions that a name gives are not always drawn.
Measure: IC50 (µM)
Supply the numeric figure in µM, leaving out any unit text.

-- ask Data request, read-out IC50, for Nc1ccn([C@@H]2O[C@H](CO)[C@@H](O)C2(F)F)c(=O)n1 [GEM, Gemcitabine hydrochloride]
-- reply 0.0594
